Study Target: T1, human serum albumin (human, UniProt P02768 25-609)
T1 construct: Bought recombinant product; also called HSA; Albucult
T1 sequence (P02768 25-609 limits assumed): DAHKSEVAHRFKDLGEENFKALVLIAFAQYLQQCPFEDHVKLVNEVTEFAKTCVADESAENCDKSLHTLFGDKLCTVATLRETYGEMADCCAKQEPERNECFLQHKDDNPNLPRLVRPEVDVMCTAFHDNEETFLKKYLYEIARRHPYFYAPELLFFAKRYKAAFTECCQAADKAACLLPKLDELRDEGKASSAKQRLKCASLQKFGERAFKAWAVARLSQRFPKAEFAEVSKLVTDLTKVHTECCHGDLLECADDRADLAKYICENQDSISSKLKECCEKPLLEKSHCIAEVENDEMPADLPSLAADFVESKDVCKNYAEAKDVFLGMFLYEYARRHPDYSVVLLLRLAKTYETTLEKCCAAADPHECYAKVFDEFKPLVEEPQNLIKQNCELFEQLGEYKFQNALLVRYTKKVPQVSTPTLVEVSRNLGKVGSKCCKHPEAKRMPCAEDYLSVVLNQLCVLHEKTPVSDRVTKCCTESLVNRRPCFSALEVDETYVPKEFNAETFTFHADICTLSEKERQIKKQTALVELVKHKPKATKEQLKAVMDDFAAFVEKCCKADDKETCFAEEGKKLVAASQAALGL
Test Name: SPR Biacore2000, HSA immobilized on CM-5, polypeptide as analyte, 1:1 Langmuir fit, relative values
Property Label: Kd (nM)
Give the number; nM is assumed, so skip it.

State, in one line, measured Kd of GSSLAEAKEAANAELDSYGVSDFYKSLIDKAKTVEGVEALKDAILAALP (designed binder, Control polypeptide; 46 residues with an N-terminal GSS extension; R23S against PEP07843 (position counted on the 46-mer without GSS); Expressed in E. coli; also called ABD variant; R23S variant of PEP07843) [PEP12381]
0.017

State, in one line, measured Kd of GSSLAEAKEAANAELDSYGVSDFYKKLIDKAKTVEGVEALKDAILAALP (designed binder, Inventive variant; 46 residues with an N-terminal GSS extension; R23K against PEP07843 (position counted on the 46-mer without GSS); Expressed in E. coli; also called ABD variant; R23K variant of PEP07843) [PEP12380]
0.0075

State, in one line, measured Kd of GSSLAEAKEAANAELDSYGVSDFYKRLIDKAKTVEGVEALKDAILAALP (designed binder, single Arg at position 23 of the 46-mer; GSS extension at the N-terminus; also called ABD variant; control) [PEP07843]
0.0067

State, in one line, measured Kd of GSSLAEAKEAANAELDSYGVSDFYKNLIDKAKTVEGVEALKDAILAALP (designed binder, R23N against PEP07843 (position counted on the 46-mer without GSS); Control polypeptide, expressed in E. coli; also called ABD variant; R23N variant of PEP07843) [PEP12379]
0.014
